Listed compounds paired with reported IC50
system tested: human P2X3 receptor (Homo sapiens (Human), UniProt P56373)
Sequence (P56373 whole entry): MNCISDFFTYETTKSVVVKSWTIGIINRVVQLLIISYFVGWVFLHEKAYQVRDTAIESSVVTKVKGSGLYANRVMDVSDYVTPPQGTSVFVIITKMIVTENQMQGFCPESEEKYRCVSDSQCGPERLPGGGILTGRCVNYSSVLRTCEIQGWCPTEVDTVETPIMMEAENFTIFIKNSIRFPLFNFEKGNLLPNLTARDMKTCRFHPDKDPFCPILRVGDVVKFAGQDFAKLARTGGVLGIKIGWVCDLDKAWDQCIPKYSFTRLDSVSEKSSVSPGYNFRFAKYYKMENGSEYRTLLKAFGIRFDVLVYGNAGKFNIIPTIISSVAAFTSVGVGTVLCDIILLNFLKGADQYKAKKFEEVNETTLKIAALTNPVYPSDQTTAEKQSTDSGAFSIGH
assay: Evaluation of human P2X3 receptor inhibitory activity (Fluo-3 calcium fluorescence, FDSS 3000, ATP stimulation);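 further: stimulus was 50 nM ATP with fluorescence followed for 3 min, and the response per well was peak post-ATP fluorescence divided by the reading at measurement start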
Format: cell-based
measurement parameters: C6BU-1 cells stably expressing human P2X3 receptor
Field format: number, assumed nM, no unit text.

Worked cases, IC50 given:
compound: COC(=O)CCCCn1c(=O)[nH]/c(=N\c2ccc3nc(C)sc3c2)n(Cc2ccc(C)cc2)c1=O
unit annotation: nM
IC50: 4
--
compound: CC(C)Oc1ccc(/N=c2\[nH]c(=O)n(Cc3ncn[nH]3)c(=O)n2Cc2ccc(Cl)cc2)cc1F
unit annotation: nM
IC50: 32
--
compound: CCOC(=O)c1cnc(Oc2ccc(/N=c3\[nH]c(=O)n(CC)c(=O)n3Cc3ccc(Cl)cc3)cc2)o1
unit annotation: nM
IC50: 44

Query: So what does the record say about IC50 for CC(C)Oc1ccc(/N=c2\[nH]c(=O)n(CC(=O)N3CCNCC3)c(=O)n2Cc2ccc(Cl)cc2)cc1Cl ?
Response: 38

Query: Do the same for COC(=O)c1cc(Oc2ccc(/N=c3\[nH]c(=O)n(CCOC4CCCCO4)c(=O)n3Cc3ccc(Cl)cc3)cc2)no1 (stereo not shown) please
Response: 1

Query: Same question for COC(=O)[C@H](C)[C@H](C)n1c(=O)[nH]/c(=N\c2ccc3oc(C)cc3c2)n(Cc2ccc(C)cc2)c1=O please.
Response: 28

Query: How about this compound: Cc1cc(/N=c2\[nH]c(=O)n(Cc3cccn(CCO)c3=O)c(=O)n2Cc2ccc(Cl)cc2)ccc1OC(C)C
Response: 16
